Emax reference
# System: primary human mesenchymal stem cells (hMSCs)
# Method: Induction of chondrogenesis in hMSCs (nodule count)
# Format: cell-based
# Run Parameters: 6 days, relative to TGF-β3 (10 ng/mL) positive control, read-out: Max. Activity as % TGF-β3 activity
Express your answer in %, writing the number without its unit.

1. O=C(Nc1cncc(-c2cnc3[nH]nc(-c4cc5c(-c6ccccc6F)cncc5[nH]4)c3c2)c1)C1CC1 [Compound 76] = 52
2. O=C(Nc1cncc(-c2cnc3[nH]nc(-c4cc5c(-c6ccncc6)cncc5[nH]4)c3c2)c1)C1CCC1 [Compound 133] = 43

Record request: Emax value, item CN(C)Cc1cncc(-c2cnc3[nH]nc(-c4cc5c(-c6ccccc6F)cncc5[nH]4)c3c2)c1 [Compound 69]
61

And for Cc1ncc(-c2cnc3[nH]nc(-c4cc5c(-c6ccncc6)cncc5[nH]4)c3c2)n1C [Compound 573] ?
194

And for CS(=O)(=O)NCc1cc(F)cc(-c2cncc3[nH]c(-c4n[nH]c5ncc(-c6cncc(NC(=O)C7CC7)c6)cc45)cc23)c1 [Compound 496] ?
23

And for CN(C)c1cncc(-c2cnc3[nH]nc(-c4cc5c(-c6ccncc6)cncc5[nH]4)c3c2)c1 [Compound 119] ?
191

And for CC(C)(C)C(=O)Nc1cncc(-c2cnc3[nH]nc(-c4cc5c(-c6ccncc6)cncc5[nH]4)c3c2)c1 [Compound 120] ?
34

And for Cc1ccncc1-c1cnc2[nH]nc(-c3cc4c(-c5cccnc5)cncc4[nH]3)c2c1 [Compound 89] ?
17

And for CCNCc1cncc(-c2cnc3[nH]nc(-c4cc5c(-c6cc(F)cc(CNS(C)(=O)=O)c6)cncc5[nH]4)c3c2)c1 [Compound 482] ?
43

And for O=C(Nc1cncc(-c2cnc3[nH]nc(-c4cc5ccncc5[nH]4)c3c2)c1)C1CCCCC1 [Compound 275] ?
291

And for O=C(Nc1cncc(-c2cnc3[nH]nc(-c4cc5c(-c6cccnc6)cncc5[nH]4)c3c2)c1)c1ccccc1 [Compound 95] ?
155

And for CCCC(=O)Nc1cncc(-c2cnc3[nH]nc(-c4cc5c(-c6cc(F)cc(CNS(C)(=O)=O)c6)cncc5[nH]4)c3c2)c1 [Compound 493] ?
37

And for CCNCc1cncc(-c2cnc3[nH]nc(-c4cc5c(-c6ccccc6F)cncc5[nH]4)c3c2)c1 [Compound 62] ?
37

And for Cc1ccncc1-c1cnc2[nH]nc(-c3cc4c(-c5ccc(F)cc5)cncc4[nH]3)c2c1 [Compound 33] ?
67

====

pEC50 reference
# Test system: IL-6
# Method: IL-6 inhibition in LPS-stimulated THP-1 cells (HTRF)
# Type: cell-based
# Run Parameters: Homo sapiens; THP-1 cells, LPS 500 ng/mL, 22 hours, IL6 HTRF
Remember the convention: pEC50 equals -log10 of concentration in molar.

Past entries and their recorded results:
1. CN(C)Cc1cncc(-c2cnc3[nH]nc(-c4cc5c(-c6ccccc6F)cncc5[nH]4)c3c2)c1 = 6.88
2. O=C(Nc1cncc(-c2cnc3[nH]nc(-c4cc5c(N6CCCCC6)cncc5[nH]4)c3c2)c1)C1CCCCC1 = 5.19
3. CC(C)(C)C(=O)Nc1cncc(-c2cnc3[nH]nc(-c4cc5c(-c6ccncc6)cncc5[nH]4)c3c2)c1 = 6.71
4. Fc1cccc(-c2cncc3[nH]c(-c4n[nH]c5ncc(-c6cncc(CNCc7ccccc7)c6)cc45)cc23)c1 = 5.68
5. O=C(Nc1cncc(-c2cnc3[nH]nc(-c4cc5c(-c6ccc(F)cc6)cncc5[nH]4)c3c2)c1)C1CCCCC1 = 5.46

Record request: pEC50 value, item Fc1cccc(-c2cncc3[nH]c(-c4n[nH]c5ncc(C6CCNCC6)cc45)cc23)c1
5.39

And for CC(C)CC(=O)Nc1cncc(-c2cnc3[nH]nc(-c4cc5c(-c6cc(F)cc(CNS(C)(=O)=O)c6)cncc5[nH]4)c3c2)c1 ?
5.93

And for CC(C)(C)C(=O)Nc1cncc(-c2cnc3[nH]nc(-c4cc5c(-c6ccc(F)cc6)cncc5[nH]4)c3c2)c1 ?
6.90
